- Method: in vitro
- Condition Set: human
Where a name gives a salt, the structure may show the parent alone.
Reported Endpoint: CC50 (µM)
Answer in µM, number only, no unit symbol.

compound="CN(C)CCOc1ccc(/C(=C(/CCCl)c2ccccc2)c2ccccc2)cc1 [TOMF, Toremifene citrate]" units=µM data_value=22.5

What value of measured CC50 is listed for CN(C)CCCN1c2ccccc2Sc2ccc(Cl)cc21 [CPZ, Chlorpromazine hydrochloride] ?
25.6
